This collection of values is drawn from patent US8889671B2.

Tested on: Staphylococcus aureus
Assay details: Susceptibility testing (MIC) Assay 1, broth microdilution
Assay type: cell-based
Condition parameters: Staphylococcus aureus, in vivo strain, MRQR; read-out: Sau(e) MIC
Reported property: MIC (µM)
One number for each entry, in µM.

Take a look at these entries with their results.
C#C[C@H]1COC(=O)N1c1noc2c(F)c3c(cc12)CC1(C(=O)NC(=O)NC1=O)[C@H]1[C@H](C)O[C@H](C)CN31 [Example 65]	1.6
C[C@@H]1CN2c3c(cc4c(N5C(=O)OC[C@@H]5[C@H](O)CO)noc4c3F)CC3(C(=O)NC(=O)NC3=O)[C@H]2[C@H](C)O1 [Example 73]	100
C[C@@H]1CN2c3c(cc4c(N5C(=O)OC[C@H]5c5ccccc5)noc4c3F)CC3(C(=O)NC(=O)NC3=O)[C@H]2[C@H](C)O1 [Example 8]	12
C[C@@H]1CN2c3c(cc4c(N5C(=O)OC[C@H]5c5ncccn5)noc4c3F)CC3(C(=O)NC(=O)NC3=O)[C@H]2[C@H](C)O1 [Example 63]	3.1

Turning now to a further record.
Let me check: C[C@@H]1CN2c3c(cc4c(N5C(=O)OC[C@@H]5c5ncccn5)noc4c3F)CC3(C(=O)NC(=O)NC3=O)[C@H]2[C@H](C)O1 [Example 64] , system Staphylococcus aureus, measured MIC is 25

* * *

System: Escherichia coli DNA gyrase A/B tetramer (Escherichia coli (strain K12), UniProt P0AES4+P0AES6)
Assay details: DNA gyrase supercoiling activity fluorescence polarisation assay
Assay type: biochemical
Condition parameters: E. coli DNA gyrase supercoiling, 0.3 mM ATP; read-out: Eco Gyr FP Mean IC50
Reported property: IC50 (nM)
One number for each entry, in nM.

C[C@@H]1CN2c3c(cc4c(N5C(=O)OC[C@@H]5CCCO)noc4c3Cl)CC3(C(=O)NC(=O)NC3=O)[C@H]2[C@H](C)O1 [Example 33]	260

For reference, reported IC50 for C[C@@H]1CN2c3c(cc4c(N5C(=O)OC[C@H]5C5CCOCC5)noc4c3F)CC3(C(=O)NC(=O)NC3=O)[C@H]2[C@H](C)O1 [Example 27] stands at 530

* * *

Answer each item with its documented MIC.
Test system: Staphylococcus aureus
Assay details: Susceptibility testing (MIC) Assay 1, broth microdilution
Format: cell-based
Condition parameters: Staphylococcus aureus, in vivo strain, MRQR; read-out: Sau(e) MIC
Form entry: enter the amount, then its unit.

The cases that follow already have their MIC on record.
C[C@@H]1CN2c3c(cc4c(N5C(=O)OC[C@@H]5C5CC5)noc4c3F)CC3(C(=O)NC(=O)NC3=O)[C@H]2[C@H](C)O1	1.6 µM
C=C[C@H]1COC(=O)N1c1noc2c(F)c3c(cc12)CC1(C(=O)NC(=O)NC1=O)[C@H]1[C@H](C)O[C@H](C)CN31	1.6 µM

// switching to the query compound
Query `C[C@@H]1CN2c3c(cc4c(N5C(=O)OC[C@@H]5c5ccccn5)noc4c3F)CC3(C(=O)NC(=O)NC3=O)[C@H]2[C@H](C)O1` on Staphylococcus aureus; MIC returned: 6.2 µM

* * *

System: Escherichia coli DNA gyrase A/B tetramer (Escherichia coli (strain K12), UniProt P0AES4+P0AES6)
Assay details: DNA gyrase supercoiling activity fluorescence polarisation assay
Format: biochemical
Condition parameters: Eco Gyr FP Mean IC50, E. coli DNA gyrase supercoiling, 0.3 mM ATP
Reported property: pIC50
Numbers only, as −log10 of the molar value.

Past entries and their recorded results:
C[C@@H]1CN2c3c(cc4c(N5C[C@H](c6ccccn6)OC5=O)noc4c3F)CC3(C(=O)NC(=O)NC3=O)[C@H]2[C@H](C)O1	6.42
C[C@@H]1CN2c3c(cc4c(N5C(=O)OC[C@H]5CF)noc4c3F)CC3(C(=O)NC(=O)NC3=O)[C@H]2[C@H](C)O1	6.72
C[C@@H]1CN2c3c(cc4c(N5C(=O)OC[C@H]5c5cnccn5)noc4c3F)CC3(C(=O)NC(=O)NC3=O)[C@H]2[C@H](C)O1	6.47
COC[C@@H]1CN(c2noc3c(Cl)c4c(cc23)CC2(C(=O)NC(=O)NC2=O)[C@H]2[C@H](C)O[C@H](C)CN42)C(=O)O1	6.38

Now let's try a different one.
Looking up `C[C@@H]1CN2c3c(cc4c(N5C(=O)OC[C@@H]5C(F)F)noc4c3F)CC3(C(=O)NC(=O)NC3=O)[C@H]2[C@H](C)O1` , I see its pIC50 listed as 6.37

* * *

System: Escherichia coli DNA gyrase A/B tetramer (Escherichia coli (strain K12), UniProt P0AES4+P0AES6)
Assay details: DNA gyrase supercoiling activity fluorescence polarisation assay
Format: biochemical
Condition parameters: Eco Gyr FP Mean IC50, E. coli DNA gyrase supercoiling, 0.3 mM ATP
Consider the following compounds; for each one, report its IC50.
Numbers only, in nM.

CC[C@H]1CN(c2noc3c(F)c4c(cc23)CC2(C(=O)NC(=O)NC2=O)[C@H]2[C@H](C)O[C@H](C)CN42)C(=O)O1	510

Batch lookup, IC50 per entry.
1. C[C@@H]1CN2c3c(cc4c(N5C(=O)OC[C@@H]5c5ncnn5C)noc4c3F)CC3(C(=O)NC(=O)NC3=O)[C@H]2[C@H](C)O1
2. C[C@@H]1CN2c3c(cc4c(N5C(=O)OC[C@H]5c5ccccn5)noc4c3F)CC3(C(=O)NC(=O)NC3=O)[C@H]2[C@H](C)O1
3. C[C@@H]1CN2c3c(cc4c(N5C[C@@H](CF)OC5=O)noc4c3F)CC3(C(=O)NC(=O)NC3=O)[C@H]2[C@H](C)O1
4. C[C@@H]1CN2c3c(cc4c(N5C(=O)OC[C@@H]5C=NO)noc4c3F)CC3(C(=O)NC(=O)NC3=O)[C@H]2[C@H](C)O1
5. C[C@@H]1CN2c3c(cc4c(N5CC(C)(C)OC5=O)noc4c3F)CC3(C(=O)NC(=O)NC3=O)[C@H]2[C@H](C)O1 (racemic)
6. CON=C[C@H]1COC(=O)N1c1noc2c(F)c3c(cc12)CC1(C(=O)NC(=O)NC1=O)[C@H]1[C@H](C)O[C@H](C)CN31

a:
1: 220; 2: 150; 3: 160; 4: 470; 5: 3200; 6: 290

* * *

Assay details: Plasma pharmacokinetics in S. pyogenes infected mice
Assay type: in vivo
Condition parameters: mouse, nominal dose 80 mg/kg (measured 66.2), ip, with ABT
Procedure: Groups of satellite mice infected with S. pyogenes, as described above, were used for determining plasma concentrations. Dosing started 2 hours after infection and whole blood samples were taken at 0.5, 1, 2, 4, 6, 8, 12 and 24 h. […] Biological samples containing Example 5 were extracted using protein precipitation. […] A Sciex API 4000, controlled by Analyst v1.4.2, was used for the acquisition of the data and the quantification of Example 5. […]
Reported property: AUC(0-inf) (µg·h/mL)
Answers are plain numbers, in µg·h/mL.

The measured AUC(0-inf) associated with `C[C@@H]1CN2c3c(cc4c(N5C(=O)OC[C@@H]5C)noc4c3F)CC3(C(=O)NC(=O)NC3=O)[C@H]2[C@H](C)O1` reads 251

* * *

System: Escherichia coli DNA gyrase A/B tetramer (Escherichia coli (strain K12), UniProt P0AES4+P0AES6)
Assay details: DNA gyrase supercoiling activity fluorescence polarisation assay
Type: biochemical
Condition parameters: Eco Gyr FP Mean IC50, E. coli DNA gyrase supercoiling, 0.3 mM ATP
IC50 less than 300 nM is YES; IC50 greater than or equal to 300 nM is NO.

COC[C@H]1[C@@H](C)OC(=O)N1c1noc2c(F)c3c(cc12)CC1(C(=O)NC(=O)NC1=O)[C@H]1[C@H](C)O[C@H](C)CN31	NO
CO[C@H](C)[C@H]1COC(=O)N1c1noc2c(F)c3c(cc12)CC1(C(=O)NC(=O)NC1=O)[C@H]1[C@H](C)O[C@H](C)CN31	NO
CC[C@H]1COC(=O)N1c1noc2c(F)c3c(cc12)CC1(C(=O)NC(=O)NC1=O)[C@H]1[C@H](C)O[C@H](C)CN31	NO
C[C@@H]1CN2c3c(cc4c(N5C(=O)OC[C@H]5c5ccncc5)noc4c3F)CC3(C(=O)NC(=O)NC3=O)[C@H]2[C@H](C)O1	NO
C[C@@H]1CN2c3c(cc4c(N5C(=O)O[C@@H](C)[C@H]5C)noc4c3F)CC3(C(=O)NC(=O)NC3=O)[C@H]2[C@H](C)O1	NO
C[C@@H]1CN2c3c(cc4c(N5C[C@@H](CO)OC5=O)noc4c3F)CC3(C(=O)NC(=O)NC3=O)[C@H]2[C@H](C)O1	YES
C[C@@H]1CN2c3c(cc4c(N5C(=O)OC[C@@H]5[C@@H](C)O)noc4c3F)CC3(C(=O)NC(=O)NC3=O)[C@H]2[C@H](C)O1	NO
COC[C@@H]1CN(c2noc3c(F)c4c(cc23)CC2(C(=O)NC(=O)NC2=O)[C@H]2[C@H](C)O[C@H](C)CN42)C(=O)O1	NO
C[C@@H]1CN2c3c(cc4c(N5C(=O)OC[C@@H]5CC#N)noc4c3F)CC3(C(=O)NC(=O)NC3=O)[C@H]2[C@H](C)O1	YES
C[C@@H]1CN2c3c(cc4c(N5C[C@H](CO)OC5=O)noc4c3F)CC3(C(=O)NC(=O)NC3=O)[C@H]2[C@H](C)O1	YES

q: Dear reviewer, please state whether COC[C@H]1COC(=O)N1c1noc2c(F)c3c(cc12)CC1(C(=O)NC(=O)NC1=O)[C@H]1[C@H](C)O[C@H](C)CN31 (single isomer, unassigned) [Example 17] has IC50 strictly beneath 300 nM.
a: YES

q: State whether 300 nM exceeds IC50 recorded for `COC[C@@H]1[C@@H](C)OC(=O)N1c1noc2c(F)c3c(cc12)CC1(C(=O)NC(=O)NC1=O)[C@H]1[C@H](C)O[C@H](C)CN31` .
a: YES
